Listing: IC50 of selected compounds
Molecular target: human AOC3 enzyme (recombinant CHO cells) (Homo sapiens)
Construct: expressed in transfected cells; host or cells: CHO cells
Sequence (Q16853 1-763): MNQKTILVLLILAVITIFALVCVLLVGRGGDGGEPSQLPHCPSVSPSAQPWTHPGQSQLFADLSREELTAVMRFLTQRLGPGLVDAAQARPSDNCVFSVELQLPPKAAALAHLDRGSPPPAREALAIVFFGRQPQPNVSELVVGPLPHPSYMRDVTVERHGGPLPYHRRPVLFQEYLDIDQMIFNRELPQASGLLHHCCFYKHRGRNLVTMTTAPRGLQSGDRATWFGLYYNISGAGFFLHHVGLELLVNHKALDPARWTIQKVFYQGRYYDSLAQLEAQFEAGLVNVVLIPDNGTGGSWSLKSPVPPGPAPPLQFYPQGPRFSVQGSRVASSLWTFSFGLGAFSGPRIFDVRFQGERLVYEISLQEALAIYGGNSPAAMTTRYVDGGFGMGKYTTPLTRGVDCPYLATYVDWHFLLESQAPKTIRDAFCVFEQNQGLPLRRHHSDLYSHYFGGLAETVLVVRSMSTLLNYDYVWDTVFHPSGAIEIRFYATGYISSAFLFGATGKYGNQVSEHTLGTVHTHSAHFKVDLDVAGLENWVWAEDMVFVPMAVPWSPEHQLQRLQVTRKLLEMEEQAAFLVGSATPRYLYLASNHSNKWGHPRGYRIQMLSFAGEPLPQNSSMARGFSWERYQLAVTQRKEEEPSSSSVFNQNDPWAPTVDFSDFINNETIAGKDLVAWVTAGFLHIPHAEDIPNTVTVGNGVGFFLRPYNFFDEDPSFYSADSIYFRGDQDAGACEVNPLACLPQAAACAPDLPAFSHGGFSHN
Test: AOC3 biochemical assay (MAO-Glo), human enzyme
Conditions: comparison table; read-out: IC50 AOC3
ASSAY READOUT: IC50 (nM)

>>> meas_value("NC/C(=C/F)COc1ccc(S(=O)(=O)N2CC[C@H](O)C2)cc1 [Reference compound B, reference compound]")
6
>>> meas_value("CN(C)S(=O)(=O)c1ccc(OC/C(=C\\F)CN)cc1 [Compound 10 of WO 2013/163675, reference compound]")
2
>>> meas_value("NC/C(=C/F)COc1cnc(N2CC[C@H](O)C2)nc1 [Z isomer of example 6 of WO 2018/027892, reference compound]")
7
>>> meas_value("COC1CN(S(=O)(=O)c2ccc(OC/C(=C\\F)CN)cc2)C1 [Reference compound A, reference compound]")
3
>>> meas_value("NC/C(=C/F)COc1cnc(N2CCC(O)CC2)nc1 [reference compound]")
4

###

Parameter: pIC50. Scope: all listed entries.
Target: AOC1 (Homo sapiens, UniProt P19801)
Construct: purchased R&D Systems 8297-AO-010
Sequence (P19801 20-751): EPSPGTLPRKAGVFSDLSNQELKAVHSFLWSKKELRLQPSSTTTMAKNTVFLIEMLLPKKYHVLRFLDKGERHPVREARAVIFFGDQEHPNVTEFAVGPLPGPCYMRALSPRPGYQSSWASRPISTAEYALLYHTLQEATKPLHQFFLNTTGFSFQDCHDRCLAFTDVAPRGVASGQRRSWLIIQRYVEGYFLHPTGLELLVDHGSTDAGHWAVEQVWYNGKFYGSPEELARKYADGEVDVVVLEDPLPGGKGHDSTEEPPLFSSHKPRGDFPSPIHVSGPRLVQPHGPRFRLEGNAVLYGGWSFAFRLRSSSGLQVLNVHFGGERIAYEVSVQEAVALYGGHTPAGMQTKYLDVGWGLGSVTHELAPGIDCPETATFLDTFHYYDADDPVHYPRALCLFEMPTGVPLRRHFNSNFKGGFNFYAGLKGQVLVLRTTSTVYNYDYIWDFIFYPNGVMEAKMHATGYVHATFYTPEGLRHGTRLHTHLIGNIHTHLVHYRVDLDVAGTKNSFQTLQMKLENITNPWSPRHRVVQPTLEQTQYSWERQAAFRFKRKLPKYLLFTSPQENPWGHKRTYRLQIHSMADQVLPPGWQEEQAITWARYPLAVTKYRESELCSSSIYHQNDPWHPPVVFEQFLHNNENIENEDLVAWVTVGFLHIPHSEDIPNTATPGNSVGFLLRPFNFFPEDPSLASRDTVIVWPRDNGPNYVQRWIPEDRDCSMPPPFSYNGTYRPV
Experiment: AOC1 biochemical assay (Amplex Red)
Conditions: read-out: IC50 AOC1
pIC50: −log10 of the molar value.
ASSAY READOUT: pIC50

>>> meas_value("NC/C(=C/F)COc1ccc(S(=O)(=O)N2CC[C@H](O)C2)cn1")
6.02
>>> meas_value("NC/C(=C/F)COc1cnc(N2CC[C@H](O)C2)nc1 [Z isomer of example 6 of WO 2018/027892, reference compound]")
7.15

###

Target: AOC2 (Homo sapiens, UniProt O75106)
Construct: host or cells: HEK293 cells (transient transfection), cell homogenate
Sequence (O75106 whole entry): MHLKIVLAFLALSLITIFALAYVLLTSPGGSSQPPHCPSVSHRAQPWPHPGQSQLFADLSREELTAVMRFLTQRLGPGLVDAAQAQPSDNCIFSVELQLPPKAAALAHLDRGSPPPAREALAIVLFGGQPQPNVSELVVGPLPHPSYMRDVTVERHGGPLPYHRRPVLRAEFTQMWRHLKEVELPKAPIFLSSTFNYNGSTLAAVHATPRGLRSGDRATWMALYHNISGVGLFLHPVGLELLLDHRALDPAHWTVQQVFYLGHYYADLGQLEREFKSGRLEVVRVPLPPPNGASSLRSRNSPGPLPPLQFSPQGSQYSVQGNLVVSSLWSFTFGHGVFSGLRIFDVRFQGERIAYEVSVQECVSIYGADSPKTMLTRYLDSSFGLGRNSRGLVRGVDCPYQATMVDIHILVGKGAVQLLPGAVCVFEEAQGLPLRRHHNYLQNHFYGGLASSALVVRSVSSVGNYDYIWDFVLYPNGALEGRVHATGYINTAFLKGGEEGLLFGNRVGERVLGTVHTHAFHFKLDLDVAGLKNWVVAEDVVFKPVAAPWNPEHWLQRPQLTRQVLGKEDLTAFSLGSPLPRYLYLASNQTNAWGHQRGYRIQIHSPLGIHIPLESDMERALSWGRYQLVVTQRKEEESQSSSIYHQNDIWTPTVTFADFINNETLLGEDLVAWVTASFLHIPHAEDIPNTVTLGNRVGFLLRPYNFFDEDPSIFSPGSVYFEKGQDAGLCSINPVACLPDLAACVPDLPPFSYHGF
Assay: AOC2 biochemical assay (Amplex Red)
Conditions: value in μM; read-out: AOC2 IC50
ASSAY READOUT: IC50 (µM)

>>> meas_value("NC/C(=C/F)COc1ccc(S(=O)(=O)N2CCC(C(=O)N3CCOCC3)CC2)cn1")
23.4

###

Target: human AOC3 enzyme (recombinant CHO cells) (Homo sapiens)
Construct: expressed in transfected cells; host or cells: CHO cells
Sequence (Q16853 1-763): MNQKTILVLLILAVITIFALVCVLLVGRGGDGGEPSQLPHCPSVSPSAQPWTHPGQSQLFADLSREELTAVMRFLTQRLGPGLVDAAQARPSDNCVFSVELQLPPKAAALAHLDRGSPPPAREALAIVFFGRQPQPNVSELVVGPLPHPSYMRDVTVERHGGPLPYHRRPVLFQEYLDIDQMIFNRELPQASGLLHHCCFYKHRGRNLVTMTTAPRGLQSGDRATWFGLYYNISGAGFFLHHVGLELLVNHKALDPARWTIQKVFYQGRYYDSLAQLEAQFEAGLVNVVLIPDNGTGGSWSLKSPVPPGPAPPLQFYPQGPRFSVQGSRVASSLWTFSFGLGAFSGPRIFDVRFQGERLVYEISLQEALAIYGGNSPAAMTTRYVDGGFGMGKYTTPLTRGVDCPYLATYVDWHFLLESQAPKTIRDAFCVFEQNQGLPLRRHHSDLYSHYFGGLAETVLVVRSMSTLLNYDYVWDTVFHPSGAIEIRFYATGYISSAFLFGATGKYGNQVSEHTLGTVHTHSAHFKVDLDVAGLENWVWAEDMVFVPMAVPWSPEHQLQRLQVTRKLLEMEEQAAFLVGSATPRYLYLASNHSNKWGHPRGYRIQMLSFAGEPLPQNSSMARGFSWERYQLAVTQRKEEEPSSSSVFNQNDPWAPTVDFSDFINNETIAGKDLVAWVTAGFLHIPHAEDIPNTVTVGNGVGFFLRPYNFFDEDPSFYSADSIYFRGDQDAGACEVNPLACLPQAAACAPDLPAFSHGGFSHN
Experiment: AOC3 biochemical assay (MAO-Glo), human enzyme
Details: read-out: AOC3 IC50
ASSAY READOUT: IC50 (nM)

>>> meas_value("CC(F)(F)CNC(=O)CC1CCN(S(=O)(=O)c2ccc(OC/C(=C\\F)CN)nc2)CC1")
12
>>> meas_value("COC(=O)C1(C)CCN(S(=O)(=O)c2ccc(OC/C(=C\\F)CN)nc2)CC1")
4
>>> meas_value("COC(=O)CC1CCN(S(=O)(=O)c2ccc(OC/C(=C\\F)CN)nc2)CC1")
4
>>> meas_value("NC/C(=C/F)COc1ccc(S(=O)(=O)N2CCC(C(=O)O)CC2)cn1")
493
>>> meas_value("NC/C(=C/F)COc1ccc(S(=O)(=O)N2CC[C@H](C(N)=O)C2)cn1")
6
>>> meas_value("NC/C(=C/F)COc1ccc(S(=O)(=O)N2CCC[C@H]2C(N)=O)cn1")
43
>>> meas_value("CNC(=O)[C@@H]1[C@@H]2CN(S(=O)(=O)c3ccc(OC/C(=C\\F)CN)nc3)C[C@@H]21")
27
>>> meas_value("CCNC(=O)C1(C)CCN(S(=O)(=O)c2ccc(OC/C(=C\\F)CN)nc2)CC1")
28
>>> meas_value("COC1CCN(S(=O)(=O)c2ccc(OC/C(=C\\F)CN)nc2)CC1")
4
>>> meas_value("CN(C)C(=O)[C@H]1CCN(S(=O)(=O)c2ccc(OC/C(=C\\F)CN)nc2)C1")
23
>>> meas_value("NC/C(=C/F)COc1ccc(S(=O)(=O)N2CCC(CC(N)=O)CC2)cn1")
8
>>> meas_value("NC/C(=C/F)COc1ccc(S(=O)(=O)N2CC(C(N)=O)C2)cn1")
6
>>> meas_value("NC/C(=C/F)COc1ccc(S(=O)(=O)N2CC[C@H](O)C2)cn1")
10
>>> meas_value("NC/C(=C/F)COc1ccc(S(=O)(=O)N2C[C@@H]3[C@H](C2)[C@H]3C(=O)O)cn1")
67
>>> meas_value("CC1(C(=O)O)CCN(S(=O)(=O)c2ccc(OC/C(=C\\F)CN)nc2)CC1")
548
>>> meas_value("CC1(O)CN(S(=O)(=O)c2ccc(OC/C(=C\\F)CN)nc2)C1")
9
>>> meas_value("NC/C(=C/F)COc1ccc(S(=O)(=O)N2CCC(CC(=O)NCCO)CC2)cn1")
17

###

Catalogue of pIC50 values
Target: AOC1 (Homo sapiens, UniProt P19801)
Construct: purchased R&D Systems 8297-AO-010
Assay: AOC1 biochemical assay (Amplex Red)
Conditions: comparison table; read-out: IC50 AOC1
pIC50: −log10 of the molar value.
ASSAY READOUT: pIC50

>>> meas_value("COC1CN(S(=O)(=O)c2ccc(OC/C(=C\\F)CN)cc2)C1 [Reference compound A, reference compound]")
5.76
>>> meas_value("NC/C(=C/F)COc1ccc(S(=O)(=O)N2CC[C@H](O)C2)cc1 [Reference compound B, reference compound]")
5.92
>>> meas_value("CN(C)S(=O)(=O)c1ccc(OC/C(=C\\F)CN)cc1 [Compound 10 of WO 2013/163675, reference compound]")
6.02
>>> meas_value("NC/C(=C/F)COc1cnc(N2CCC(O)CC2)nc1 [reference compound]")
7.18

###

Reported IC50 values for the following compounds.
Target: AOC1 (Homo sapiens, UniProt P19801)
Construct: purchased R&D Systems 8297-AO-010
Test: AOC1 biochemical assay (Amplex Red)
Conditions: read-out: AOC1 IC50
Structures can show the parent of a compound that is named as a salt.
ASSAY READOUT: IC50 (µM)

>>> meas_value("CN(C)C(=O)C1CN(S(=O)(=O)c2ccc(OC/C(=C\\F)CN)nc2)C1 [Example 25]")
1.32
>>> meas_value("CC(=O)NC1CCN(S(=O)(=O)c2ccc(OC/C(=C\\F)CN)nc2)C1 (centres unmarked) [Example 12]")
3.18
>>> meas_value("CCNC(=O)C1CCN(S(=O)(=O)c2ccc(OC/C(=C\\F)CN)nc2)CC1 [Example 15]")
4.64
>>> meas_value("CC1(C(=O)NC2CCOCC2)CCN(S(=O)(=O)c2ccc(OC/C(=C\\F)CN)nc2)CC1 [Example 48, trifluoroacetate]")
13
>>> meas_value("CC(=O)N1CC(C2CCN(S(=O)(=O)c3ccc(OC/C(=C\\F)CN)nc3)CC2)C1 [Example 9]")
4.55
>>> meas_value("CN(C)C(=O)C1CCN(S(=O)(=O)c2ccc(OC/C(=C\\F)CN)nc2)CC1 [Example 17]")
6.25
>>> meas_value("COC(=O)CC1CCN(S(=O)(=O)c2ccc(OC/C(=C\\F)CN)nc2)CC1 [Example 32]")
5.45
>>> meas_value("NC/C(=C/F)COc1ccc(S(=O)(=O)N2CCC(CC(N)=O)CC2)cn1 [Example 50]")
5.31
